experimentNotes: In vivo metabolism (biostability), HPLC analysis of organ samples
appliedConditions: ICR mice, i.v., post-injection time 2 min
Provide the recorded Percentage of Parent tracer, Liver for the entries that follow.
Please reply with the bare figure in % and do not write the unit itself.

Return reported Percentage of Parent tracer, Liver. Input compound: FCCOc1ccc(COc2ccc([125I])cc2)cc1 [[^125I]12a]
49.1

Return reported Percentage of Parent tracer, Liver. Input compound: FCCOc1ccc(OCc2ccc([125I])cc2)cc1 [[^125I]7a]
35.2

Return reported Percentage of Parent tracer, Liver. Input compound: [18F]CCOc1ccc(COc2ccc(I)cc2)cc1 [[^18F]12a]
91.1

Return reported Percentage of Parent tracer, Liver. Input compound: [18F]CCOc1ccc(OCc2ccc(I)cc2)cc1 [[^18F]7a]
79.5
